# IC50 per entry
molecular target: GABAA α2β3γ2 (Homo sapiens, UniProt P18507+P28472+P47869); construct: expressed in transfected cells; host or cells: HEK293; assay: 35S-TBPS binding assay, HEK293 membranes with GABAA α2β3γ2 construct; conditions: 35S-TBPS 5 nM, GABA 1 μM, 2 hours at room temperature, read-out: α2β3γ2 (35S-TBPS binding, pIC50) (converted)
Sequence (P47869 29-451): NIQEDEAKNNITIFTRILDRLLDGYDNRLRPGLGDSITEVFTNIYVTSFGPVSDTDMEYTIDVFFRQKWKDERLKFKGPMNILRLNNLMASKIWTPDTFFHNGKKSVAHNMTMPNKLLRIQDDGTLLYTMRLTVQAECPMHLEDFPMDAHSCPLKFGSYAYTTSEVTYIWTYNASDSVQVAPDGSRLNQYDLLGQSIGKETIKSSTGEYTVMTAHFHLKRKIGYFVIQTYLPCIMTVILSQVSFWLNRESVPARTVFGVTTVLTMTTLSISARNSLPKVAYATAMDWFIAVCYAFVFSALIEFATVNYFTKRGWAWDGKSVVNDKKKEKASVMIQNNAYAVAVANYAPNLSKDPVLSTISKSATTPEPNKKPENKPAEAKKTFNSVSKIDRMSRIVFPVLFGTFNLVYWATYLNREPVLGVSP
Sequence (P28472 26-473): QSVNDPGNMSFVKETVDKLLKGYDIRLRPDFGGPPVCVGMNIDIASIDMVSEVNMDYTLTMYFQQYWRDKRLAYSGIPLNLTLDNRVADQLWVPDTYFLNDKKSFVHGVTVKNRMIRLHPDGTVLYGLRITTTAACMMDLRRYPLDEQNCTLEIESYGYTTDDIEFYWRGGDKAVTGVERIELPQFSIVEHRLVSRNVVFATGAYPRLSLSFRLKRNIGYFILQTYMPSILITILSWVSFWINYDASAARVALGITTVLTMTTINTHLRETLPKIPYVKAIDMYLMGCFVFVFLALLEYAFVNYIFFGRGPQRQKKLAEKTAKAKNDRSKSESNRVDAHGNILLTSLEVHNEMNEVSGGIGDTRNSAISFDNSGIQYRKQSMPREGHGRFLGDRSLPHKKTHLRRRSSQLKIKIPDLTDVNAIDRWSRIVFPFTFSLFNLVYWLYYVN
Sequence (P18507 40-475): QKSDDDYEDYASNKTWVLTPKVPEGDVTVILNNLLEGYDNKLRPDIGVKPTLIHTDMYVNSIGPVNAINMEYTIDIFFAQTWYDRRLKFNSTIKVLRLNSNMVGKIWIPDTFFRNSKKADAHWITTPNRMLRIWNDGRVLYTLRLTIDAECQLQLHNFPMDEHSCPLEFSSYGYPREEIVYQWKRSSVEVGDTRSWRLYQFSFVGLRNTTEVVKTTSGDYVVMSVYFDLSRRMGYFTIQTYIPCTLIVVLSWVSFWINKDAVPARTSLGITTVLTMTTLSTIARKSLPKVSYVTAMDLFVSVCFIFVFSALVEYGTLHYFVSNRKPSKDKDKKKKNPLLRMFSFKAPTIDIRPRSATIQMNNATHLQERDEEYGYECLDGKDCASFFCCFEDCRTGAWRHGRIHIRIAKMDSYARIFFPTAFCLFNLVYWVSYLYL
Your answer is read as nM, so omit the unit and give the number.

Some compounds with recorded IC50:
{"columns": ["Compound", "IC50 (nM)"],
 "data": [
  ["Cn1nc2c(-c3ccc(Cl)cc3Cl)cccc2c1C1=NCCN1", 4680],
  ["Cn1nc2c(-c3ccc(Cl)cc3Cl)cccc2c1-c1ncc[nH]1", 537],
  ["Cn1nnnc1Cc1c2cccc(-c3ccc(Cl)cc3Cl)c2nn1C", 1700],
  ["Cn1nc2c(-c3ccc(Cl)cc3Cl)cccc2c1Cc1nnn(CCO)n1", 347],
  ["Cn1nc2c(-c3ccc(Cl)cc3Cl)cccc2c1Cc1cnc[nH]1", 1150]
]}

**Query** Record request: IC50 value, item "Cn1nc2c(-c3ccc(Cl)cc3Cl)cccc2c1C(=O)c1ncc[nH]1"
**Result** 166

**Query** Looking for the measured IC50 of "Cn1nc2c(-c3ccc(Cl)cc3Cl)cccc2c1-n1ccnc1" , can you help?
**Result** 355

**Query** Need IC50 of Cn1nc2c(-c3ccc(Cl)cc3Cl)cccc2c1C(O)c1cnc[nH]1 (stereo not drawn) , thanks.
**Result** 550

---

biological target: GABAA α2β3γ2 (Homo sapiens, UniProt P18507+P28472+P47869); construct: expressed in transfected cells; host or cells: HEK293; test: 35S-TBPS binding assay, HEK293 membranes with GABAA α2β3γ2 construct; conditions: 35S-TBPS 5 nM, GABA 1 μM, 2 hours at room temperature, read-out: α2β3γ2 (35S-TBPS binding, pIC50) (converted)
Strictly below 600 nM in IC50: YES. Otherwise: NO.

# count of solved cases: 5
{"columns": ["Compound", "Cat"],
 "data": [
  ["Cn1nc2c(-c3ccc(Cl)cc3Cl)cccc2c1Cc1nnnn1CS(C)(=O)=O [I-9]", "NO"],
  ["Cn1nc2c(-c3ccc(Cl)cc3Cl)cccc2c1C(O)c1ncc[nH]1 (stereo not shown) [I-28]", "YES"],
  ["Cn1nc2c(-c3ccc(Cl)cc3Cl)cccc2c1CCC1=NCCN1 [I-38]", "NO"],
  ["Cn1nc2c(-c3ccc(Cl)cc3Cl)cccc2c1Cc1ncc[nH]1 [I-21]", "YES"],
  ["COC(=O)c1cncn1Cc1c2cccc(-c3ccc(Cl)cc3Cl)c2nn1C [I-13]", "NO"]
]}

**Query** Please let me know if Cn1nc2c(-c3ccc(Cl)cc3Cl)cccc2c1-c1cnc[nH]1 [I-36] shows IC50 below 600 nM.
**Result** YES

**Query** Consider the compound Cn1nc2c(-c3ccc(Cl)cc3Cl)cccc2c1Cn1ccnc1 [I-40] . Is its IC50 strictly less than 600 nM?
**Result** NO

Origin of values: patent US20070238765A1
